Test system: H929
test protocol: Anti-proliferative ATP assay
Format: cell-based
reported conditions: Homo sapiens, NCI-H929, MM, p53 WT/WT
readout name: IC50

The compound listed as CC(C)(C)C[C@@H]1N[C@@H](C(=O)NC2CCC(O)CC2)[C@H](c2cccc(Cl)c2F)[C@]12C(=O)Nc1cc(Cl)ccc12 (stereo partly shown) [MI-77301 (free amine)] shows IC50 equal to 114 nM

---

System: HCT-116 (p53 wild-type)
test protocol: Cell growth assay (WST-8)
Type: cell-based, human
reported conditions: Homo sapiens, HCT-116, 96 h, read-out: IC50 HCT-116 (p53 wild-type)
readout name: IC50 (nM)
Reply with just the number (in nM).

molecule smiles: CC(C)(C)C[C@H]1N[C@@H](C(=O)N[C@H]2C[C@@](C)(O)C2)[C@H](c2cccc(Cl)c2F)[C@@]12C(=O)Nc1cc(Cl)ccc12
target or system: HCT-116 (p53 wild-type)
IC50, nM: 180

The compound listed as CC(C)(C)C[C@@H]1N[C@@H](C(=O)N[C@H]2C[C@@](C)(O)C2)[C@H](c2cccc(Cl)c2F)[C@]12C(=O)Nc1cc(Cl)ccc12 shows IC50 equal to 102

---

This section presents compounds with their documented IC50 values.
Test system: LNCAP (p53 wild-type)
test protocol: Cell growth assay (WST-8)
Format: cell-based, human
reported conditions: Homo sapiens, LNCaP, 96 h, read-out: IC50 LNCAP (p53 wild-type)
Hey, just the number and the unit after it is fine.

molecule smiles: CC(C)(C)C[C@@H]1N[C@@H](C(=O)N[C@H]2C[C@@](C)(O)C2)[C@H](c2cccc(Cl)c2F)[C@]12C(=O)Nc1cc(Cl)ccc12
result: 330 nM

Okay, next one:
Measured on LNCAP (p53 wild-type), CC(C)(C)C[C@H]1N[C@@H](C(=O)N[C@H]2C[C@@](C)(O)C2)[C@H](c2cccc(Cl)c2F)[C@@]12C(=O)Nc1cc(Cl)ccc12 has a documented IC50 of 500 nM

---

Test system: RS4; 11 (p53 wt)
test protocol: cells
reported conditions: Homo sapiens, RS4-11, 96 h, read-out: RS4; 11 (p53 wt) IC50 (μM)
readout name: IC50 (µM)
Reply with just the number (in µM).

The compound listed as CC(C)(C)C[C@@H]1N[C@@H](C(=O)N[C@H]2C[C@@](C)(O)C2)[C@H](c2cccc(Cl)c2F)[C@]12C(=O)Nc1cc(Cl)ccc12 [MI-519-6401] shows IC50 equal to 0.13

---

This section presents compounds with their documented pIC50 values.
Test system: PC-3 (deleted p53)
test protocol: Cell growth assay (WST-8)
Assay type: cell-based
reported conditions: 96 h, read-out: IC50 PC-3 (deleted p53)
Scale: negative log10 of molar concentration, which is what pIC50 denotes.

molecule smiles: CC(C)(C)C[C@H]1N[C@@H](C(=O)N[C@H]2C[C@@](C)(O)C2)[C@H](c2cccc(Cl)c2F)[C@@]12C(=O)Nc1cc(Cl)ccc12
pIC50: 5.21

Okay, next one:
The compound listed as CC(C)(C)C[C@@H]1N[C@@H](C(=O)N[C@H]2C[C@@](C)(O)C2)[C@H](c2cccc(Cl)c2F)[C@]12C(=O)Nc1cc(Cl)ccc12 shows pIC50 equal to 4.98

---

Test system: LNCAP (p53 wild-type)
test protocol: Cell growth assay (WST-8)
Type: cell-based, human
reported conditions: Homo sapiens, LNCaP; read-out: IC50 LNCAP (p53 wild-type)
readout name: pIC50
Scale: negative log10 of molar concentration, which is what pIC50 denotes.

The compound listed as CC(C)(C)C[C@@H]1N[C@@H](C(=O)N[C@H]2C[C@@](C)(O)C2)[C@H](c2cccc(Cl)c2F)[C@]12C(=O)Nc1c2ccc(Cl)c1F shows pIC50 equal to 6.52

---

System: Capan2
test protocol: Anti-proliferative ATP assay
Assay type: cell-based
reported conditions: Homo sapiens, Capan-2, pancreas, p53 —/—
readout name: IC50

The compound listed as CC(C)(C)C[C@@H]1N[C@@H](C(=O)NC2CCC(O)CC2)[C@H](c2cccc(Cl)c2F)[C@]12C(=O)Nc1cc(Cl)ccc12 (stereo partly shown) [MI-77301 (free amine)] shows IC50 equal to > 10000 nM

---

System: HCT-116 (p53—/—)
test protocol: Cell growth assay (WST-8)
Format: cell-based
reported conditions: Homo sapiens, HCT-116; read-out: IC50 HCT-116 (p53—/—)
pIC50: −log10 of the molar value.
readout name: pIC50

The compound listed as CC(C)(C)C[C@H]1N[C@@H](C(=O)N[C@H]2C[C@@](C)(O)C2)[C@H](c2cccc(Cl)c2)[C@@]12C(=O)Nc1cc(F)c(F)cc12 shows pIC50 equal to < 5.00

---

target or system: recombinant human His-tagged MDM2 protein (residues 1-118) (Homo sapiens (Human))
Sequence (Q00987 1-118): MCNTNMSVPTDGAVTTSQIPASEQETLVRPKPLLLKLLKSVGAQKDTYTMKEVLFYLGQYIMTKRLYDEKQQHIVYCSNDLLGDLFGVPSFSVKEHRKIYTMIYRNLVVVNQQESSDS
test protocol: Fluorescence-polarization MDM2 binding assay (Example 2)
reported conditions: Table 2A; no unit in the cell (μM unless otherwise indicated)
This section presents compounds with their documented IC50 values.

Check out these entries, answers already filled in.
compound: O=C(NC1CCC(O)CC1)[C@@H]1N[C@@H](c2ccccc2)[C@@]2(C(=O)Nc3cc(Cl)ccc32)[C@H]1c1cccc(Cl)c1F (single isomer, unassigned) [CB087-Isomer B]
result: < 0.5 µM
//
compound: CCN1[C@@H](CC(C)(C)C)[C@@]2(C(=O)Nc3cc(Cl)ccc32)[C@@H](c2cccc(Cl)c2F)[C@@H]1C(=O)N[C@H]1C[C@@](C)(O)C1
result: < 0.1 µM

Okay, next one:
The compound listed as CN1[C@@H](CC(C)(C)C)[C@@]2(C(=O)Nc3cc(Cl)ccc32)[C@@H](c2cccc(Cl)c2F)[C@@H]1C(=O)N[C@H]1C[C@@](C)(O)C1 shows IC50 equal to < 0.1 µM

---

Test system: EHEB
test protocol: Anti-proliferative ATP assay
Assay type: cell-based
reported conditions: CLL, p53 WT/WT
readout name: IC50 (nM)
Reply with just the number (in nM).

The molecule listed as CC(C)(C)C[C@@H]1N[C@@H](C(=O)NC2CCC(O)CC2)[C@H](c2cccc(Cl)c2F)[C@]12C(=O)Nc1cc(Cl)ccc12 (stereo partly shown) [MI-77301 (free amine)] shows IC50 equal to 70

---

target or system: recombinant human His-tagged MDM2 protein (residues 1-118) (Homo sapiens (Human))
test protocol: Fluorescence-polarization MDM2 binding assay (Example 2)
reported conditions: Table 2A; no unit in the cell (μM unless otherwise indicated)
This section presents molecules with their documented IC50 values.

The molecule listed as CC(C)(C)C[C@H]1N[C@@H](C(=O)N[C@H]2C[C@@](C)(O)C2)[C@H](c2cccc(Cl)c2)[C@@]12C(=O)Nc1cc(F)c(F)cc12 shows IC50 equal to < 3 µM

The molecule listed as CC(C)(C)C[C@@H]1N[C@@H](C(=O)NC2CCC(O)CC2)[C@H](Cc2ccccc2)[C@]12C(=O)Nc1cc(Cl)ccc12 (single isomer, unassigned) [CB084-Isomer B] shows IC50 equal to > 5 µM

The molecule listed as O=C(NC1CCC(O)CC1)[C@@H]1N[C@@H](c2ccccc2)[C@@]2(C(=O)Nc3cc(Cl)ccc32)[C@H]1Cc1ccccc1 (single isomer, unassigned) [CB083-Isomer B] shows IC50 equal to > 5 µM

The molecule listed as CC(C)(C)C[C@@H]1N[C@@H](C(=O)N[C@H]2C[C@@](C)(O)C2)[C@H](c2cccc(Cl)c2F)[C@]12C(=O)Nc1c2ccc(Cl)c1F shows IC50 equal to < 0.1 µM

Reference source: patent US8680132B2
